Consider the following compounds; for each one, report its pKi.
- Target Or System: human GlyT1c transporter (Homo sapiens (Human), UniProt P48067)
- Sequence (P48067 whole entry): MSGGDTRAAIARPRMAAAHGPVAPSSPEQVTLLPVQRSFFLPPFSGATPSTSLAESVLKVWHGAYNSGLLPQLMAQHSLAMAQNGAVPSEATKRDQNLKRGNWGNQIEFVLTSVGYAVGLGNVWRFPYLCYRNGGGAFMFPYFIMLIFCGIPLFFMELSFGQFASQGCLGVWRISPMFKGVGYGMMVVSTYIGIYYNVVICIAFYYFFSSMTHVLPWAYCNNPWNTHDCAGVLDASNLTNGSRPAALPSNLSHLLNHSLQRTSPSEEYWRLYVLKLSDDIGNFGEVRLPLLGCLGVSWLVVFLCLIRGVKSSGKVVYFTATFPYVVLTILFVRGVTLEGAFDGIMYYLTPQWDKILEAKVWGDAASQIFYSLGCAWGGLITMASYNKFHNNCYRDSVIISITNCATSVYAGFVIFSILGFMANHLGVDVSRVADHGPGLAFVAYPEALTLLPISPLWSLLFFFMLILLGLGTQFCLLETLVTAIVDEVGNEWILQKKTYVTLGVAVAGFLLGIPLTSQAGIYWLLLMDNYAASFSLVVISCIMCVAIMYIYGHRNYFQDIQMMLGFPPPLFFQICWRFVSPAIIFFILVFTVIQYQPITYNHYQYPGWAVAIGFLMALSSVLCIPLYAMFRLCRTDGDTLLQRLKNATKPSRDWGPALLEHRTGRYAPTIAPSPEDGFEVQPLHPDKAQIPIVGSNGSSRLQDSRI
- Assay Details: Radioligand binding assay using recombinant CHO cell membranes expressing human GlyT1
- Assay Setup: examples marked * tested as fumarate salts, read-out: radioligand binding Kiapp
pKi: −log10 of the molar value.

Notebook: N[C@@H]1COc2ccc(N3CC(NS(=O)(=O)CC4CC4)C3)cc2[C@@H]1Cc1ccccc1 (relative stereo) , pKi read as ≥ 8.00

Notebook: CNC1COc2ccc(N3CC(NS(=O)(=O)CC4CC4)C3)cc2C1Cc1ccccc1 (racemic) [Example 13] , pKi read as ≥ 8.00

Notebook: O=S(=O)(NC1CN(c2ccc3c(c2)[C@H](Cc2ccccc2)[C@H](N2CCC2)CO3)C1)c1cccnc1F (relative stereo) , pKi read as ≥ 7.00

Notebook: Cn1cc(S(=O)(=O)NC2CN(c3ccc4c(c3)[C@H](Cc3ccccc3)[C@H](N3CCC3)CO4)C2)cn1 (relative stereo) , pKi read as ≥ 7.00

Notebook: CCCS(=O)(=O)NC1CN(c2cc3c(cc2F)OCC(NC)C3Cc2ccccc2)C1 (single isomer, unassigned) [Example 16b] , pKi read as ≥ 8.00

Notebook: CNC1COc2cc(F)c(N3CC(NS(=O)(=O)c4cnn(C)c4)C3)cc2C1Cc1ccccc1 (single isomer, unassigned) [Example 17a] , pKi read as ≥ 8.00
